- experimental details: chemical genetic growth profiling, strain panel (AID 1159580);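 note: tested at 20 µM; growth read once vehicle control cultures reached saturation at 30 °C; 1 = growth at the plate median or of vehicle wells; lower values mean less growth of the strain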
- condition summary: S. cerevisiae deletion strains, growth OD, locus YLL001W, strain dnm1, active compounds read low
Among all 5,500 compounds or so, about 2,000 (36%) were called active. Not shown: some 18% with an inconclusive outcome. The list shows a part of the results. Where a SMILES comes first, the peptide text is derived from it. Side-chain parts run from the residue outwards. [ ]: non-standard residue; d: D form. The star is where a group is joined. X1 = CCC(C)C(N)C1=NC(C(=O)*)CS1; Orn = NCCC[CH](N)C(=O)O
With a cut-off of 1, any normalized growth strictly below it is called yes (1); any normalized growth meeting it or above is called no (0).

Is the reported normalized growth for CCC(C)C(N)C1=NC(C(=O)NC(CC(C)C)C(=O)NC(CCC(=O)O)C(=O)NC(C(=O)NCCCCC2NC(=O)C(CC(N)=O)NC(=O)C(CC(=O)O)NC(=O)C(Cc3cnc[nH]3)NC(=O)C(Cc3ccccc3)NC(=O)C(C(C)CC)NC(=O)C(CCCN)NC2=O)C(C)CC)CS1 (stereo not drawn) (cyclo(DNK([Ile-Glu-Leu-X1])[Orn]IFH); configuration not given here) strictly below 1? no (0)

Is the reported normalized growth for C[C@]12CCC3C(CC[C@H]4C[C@H](OS(=O)(=O)O)CC[C@]34C)C1CCC2=O (some centres undefined) strictly below 1? no (0)

Is the reported normalized growth for COc1cnc(NS(=O)(=O)c2ccc(N)cc2)nc1 strictly below 1? yes (1)

Is the reported normalized growth for CC1=NN(c2ccccc2)C(=O)C1 strictly below 1? yes (1)

Is the reported normalized growth for Cc1cc(C(C)(C)C)cc(C)c1CC1=NCCN1 strictly below 1? no (0)

Is the reported normalized growth for O=C(O)c1cc(=O)c2c(Cl)cc(Cl)cc2[nH]1 strictly below 1? no (0)

Is the reported normalized growth for CO[C@@]1(NC(=O)Cc2cccs2)C(=O)N2C(C(=O)O)=C(COC(N)=O)CS[C@@H]21 strictly below 1? yes (1)

Is the reported normalized growth for C=C(C)[C@@H]1CC[C@]2(CO)CC[C@]3(C)[C@H](CCC4[C@@]5(C)CC[C@H](O)C(C)(C)C5CC[C@]43C)C12 (some centres undefined) strictly below 1? no (0)

---

- experimental details: chemical genetic growth profiling, strain panel (AID 1159580)
- condition summary: S. cerevisiae deletion strains, growth OD, locus YLR268W, strain sec22, active compounds read low
Out of some 5,500 compounds screened, about 2,000 (36%) were called active. About 18% were inconclusive and are not listed. This is one part of the list.
With a cut-off of 1, any normalized growth strictly below it is called Condition met; any normalized growth meeting it or above is called Condition not met.

Is the reported normalized growth for O=c1[nH]cnc2c1ncn2C1O[C@H](CO)[C@@H](O)[C@H]1O (some centres undefined) strictly below 1? Condition not met

Is the reported normalized growth for NC[C@H]1O[C@H](O[C@H]2C(O[C@@H]3O[C@H](CO)[C@@H](O)[C@H]3O)[C@@H](O)[C@H](N)C[C@@H]2N)[C@H](N)[C@@H](O)[C@@H]1O (some centres undefined) strictly below 1? Condition met

---

- experimental details: chemical genetic growth profiling, strain panel (AID 1159580)
- condition summary: S. cerevisiae deletion strains, growth OD, locus YDL101C, strain DUN1, active compounds read low
Hit rate of the full screen: of about 5,500 compounds, about 2,000 (36%) were called active. Not shown: some 18% with an inconclusive outcome. The list shows a part of the results.
With a cut-off of 1, any normalized growth strictly below it is called t; any normalized growth meeting it or above is called f.

Is the reported normalized growth for COC(=O)CSCCc1nc(-c2ccc([N+](=O)[O-])cc2)cs1 strictly below 1? t

Is the reported normalized growth for O=C(O)[C@H](O)[C@@](O)(Cc1ccc(O)cc1)C(=O)O strictly below 1? f

Is the reported normalized growth for CC(=O)c1cc2ccccc2oc1=O strictly below 1? t

---

- experimental details: chemical genetic growth profiling, strain panel (AID 1159580);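 note: tested at 20 µM; growth read once vehicle control cultures reached saturation at 30 °C; 1 = growth at the plate median or of vehicle wells; lower values mean less growth of the strain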
- condition summary: S. cerevisiae deletion strains, growth OD, locus YHR094C, strain hxt1, active compounds read low
The whole screen tested about 5,500 compounds, of which about 2,000 (36%) were called active. Not shown: some 18% with an inconclusive outcome. The list shows a part of the results.
Would you kindly list normalized growth for each of these molecules?
I'd appreciate a reply containing only the number, no unit.

For the molecule CC(=O)O[C@H]1CC[C@]2(C)C3CC[C@@]4(C)C(CC5O[C@@]6(CCC(C)CO6)[C@@H](C)C54)C3CC[C@@H]2C1 (stereo partly drawn) , report normalized growth. 0.996

For the molecule NC[C@H]1O[C@H](O[C@H]2C(O[C@@H]3O[C@H](CO)[C@@H](O)[C@H]3O)[C@@H](O)[C@H](N)C[C@@H]2N)[C@H](N)[C@@H](O)[C@@H]1O (stereo partly drawn) , report normalized growth. 0.99

For the molecule CC(=O)O[C@H]1CC[C@]2(C)C3CC[C@@]4(C)C(CC5O[C@@]6(CCC(C)CO6)[C@@H](C)C54)C3CC[C@H]2C1 (stereo partly drawn) , report normalized growth. 0.969

---

- experimental details: chemical genetic growth profiling, strain panel (AID 1159580);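 note: tested at 20 µM; growth read once vehicle control cultures reached saturation at 30 °C; 1 = growth at the plate median or of vehicle wells; lower values mean less growth of the strain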
- condition summary: S. cerevisiae strains, growth OD, strain wild type, active compounds read low
About 2,000 (36%) of roughly 5,500 compounds were called active. Not shown: some 18% with an inconclusive outcome. The list shows a part of the results.
property: normalized growth
I'd appreciate a reply containing only the number, no unit.

For the molecule CC(=O)N[C@@H](Cc1c[nH]c2ccccc12)C(=O)O , report normalized growth. 1

For the molecule NC1CC1c1ccccc1 (configuration not stated) , report normalized growth. 1.01

For the molecule COc1ccc(C2C(=O)c3ccccc3C2=O)cc1 , report normalized growth. 1

For the molecule CC(=O)CC1CCCCN1 (configuration not stated) , report normalized growth. 1.02

For the molecule COc1cc2cc3c4cc(OC)c(OC)cc4cc[n+]3c(C)c2cc1OC , report normalized growth. 1

For the molecule NCCc1c[nH]c2ccccc12 , report normalized growth. 0.987

For the molecule CN(C)CCc1c[nH]c2ccc(CS(=O)(=O)N3CCCC3)cc12 , report normalized growth. 1.02

For the molecule CC(=O)O[C@H]1CC[C@]2(C)C3CC[C@@]4(C)C(CC5O[C@@]6(CCC(C)CO6)[C@@H](C)C54)C3CC[C@@H]2C1 (some centres not stated) , report normalized growth. 1.01

For the molecule C1CCC(C(CC2CCCCN2)C2CCCCC2)CC1 (configuration not stated) , report normalized growth. 0.314

For the molecule Cc1ccc(N(CC2=NCCN2)c2cccc(O)c2)cc1 , report normalized growth. 1

For the molecule CCc1cccc2c3c([nH]c12)C(CC)(CC(=O)O)OCC3 (configuration not stated) , report normalized growth. 0.999

For the molecule CNC(Cc1c[nH]c2ccccc12)C(=O)O (configuration not stated) , report normalized growth. 1

---

- experimental details: chemical genetic growth profiling, strain panel (AID 1159580);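 note: tested at 20 µM; growth read once vehicle control cultures reached saturation at 30 °C; 1 = growth at the plate median or of vehicle wells; lower values mean less growth of the strain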
- condition summary: S. cerevisiae deletion strains, growth OD, locus YPR163C, strain tif3, active compounds read low
In all, about 5,500 compounds went through this assay and about 2,000 (36%) were called active. Another 18% or so got no clear call; they are omitted. The list shows a part of the results.
Would you kindly list normalized growth for each of these compounds?
I'd appreciate a reply containing only the number, no unit.

For the compound NC[C@H]1O[C@H](O[C@H]2C(O[C@@H]3O[C@H](CO)[C@@H](O)[C@H]3O)[C@@H](O)[C@H](N)C[C@@H]2N)[C@H](N)[C@@H](O)[C@@H]1O (stereo partly specified) , report normalized growth. 0.989

For the compound COc1ccc(C(=O)c2ccc(O)cc2)c(O)c1O , report normalized growth. 0.983

For the compound COc1ccc(C2C(=O)c3ccccc3C2=O)cc1 , report normalized growth. 0.995

For the compound CCOc1ccc(NC(C)=O)cc1 , report normalized growth. 0.995

For the compound COP(=O)(OC)OC(Br)C(Cl)(Cl)Br (stereo unspecified) , report normalized growth. 1

For the compound CCOc1ccc(C(=O)c2ccc(O)c(O)c2O)cc1 , report normalized growth. 0.901

For the compound CC(=O)[O][Hg][c]1ccccc1 , report normalized growth. 0.0707

For the compound COc1ccc(C(=O)c2ccccc2)c(O)c1O , report normalized growth. 0.813

For the compound CCOc1cccc(C(=O)c2ccc(O)c(O)c2O)c1 , report normalized growth. 0.936

For the compound NC1CC1c1ccccc1 (stereo unspecified) , report normalized growth. 0.988

For the compound CC[C@@H](CO)NC(=O)[C@@H]1C=C2c3cccc4[nH]cc(c34)C[C@H]2N(C)C1 , report normalized growth. 0.987

For the compound NC1C[C@H]1c1ccccc1 (stereo partly specified) , report normalized growth. 0.983

For the compound COC1(C)CCC2OC2(C)CCC2C1CC2(C)C (stereo unspecified) , report normalized growth. 1

For the compound Cc1cc(C(C)(C)C)cc(C)c1CC1=NCCN1 , report normalized growth. 1

For the compound COc1cc(-c2coc3cc(O[C@@H]4O[C@H](CO)[C@@H](O)[C@H](O)[C@H]4O)c(OC)c(O)c3c2=O)cc(O)c1OC , report normalized growth. 0.986

For the compound COc1ccc(C(=O)O)c(O)c1OC , report normalized growth. 0.984
